# measurementDescription: The ability of compound to inhibit [35S][…] binding in guinea pig caudate stimulated by SNC80

{"columns": ["givenSmiles", "Ki (nM)"],
 "data": [
  ["C=CCN1CC[C@]23c4c5ccc(O)c4O[C@H]2c2[nH]c4ccccc4c2C[C@@]3(OCC)[C@H]1C5", 1]
]}
